Reference source: ChEMBL document CHEMBL1201862

I'd be grateful if you could share measured GI50 for these entries.
test system: SNB-19; assay: NCI tumour cell line growth inhibition, 48 h
Active and inactive are the calls of the source. Cut-off read from the data, not from the text of the source: active = GI50 up to about 1.1 µM and inactive = higher.

GI50 on SNB-19 for `O=c1c(Nc2ccccc2)cn(CCOc2ccccc2)c(=O)n1CCOc1ccccc1` is 31.5 µM (inactive)

Recorded GI50 for `NCCNCCNc1ccc(NCCNCCN)c2c1C(=O)c1c(O)ccc(O)c1C2=O` on SNB-19 was > 100 µM (inactive)

Value sought: GI50, system SNB-19, item CC(C)=CCC[C@@H](C)C1=CC(=O)C(C)=C(O)C1=O [ISOPEREZONE] . Result: 15.9 µM (inactive)

Observed GI50, SNB-19, `CC1(C)Cc2c(C#N)c(N)c3c(c2CO1)C(=O)OC3=O` : > 100 µM (inactive)

Lab note: compound C=C[C@@]1(C)CC2CC[C@]3(C)C(C)=CC(=O)CC3[C@]2(C)CC1O (stereo partly specified) tested on SNB-19; recorded GI50 was > 100 µM (inactive)

Given the compound c1ccc(C2=NOC3(c4ccccc4)SC4CCCCC4CN23)cc1 (stereo unspecified) and test system SNB-19, the measured GI50 is 62.4 µM (inactive)

Bench note, SNB-19: entry O=C(Nc1cc(Cl)ccc1Cl)C(=O)C(c1cnc2ccccc2n1)[N+](=O)[O-] (stereo unspecified) , its GI50 = > 100 µM (inactive)

For `CCOC(=O)c1c(N2CCOCC2)ncn(-c2cccc(Cl)c2)c1=O` on SNB-19, measured GI50 was > 100 µM (inactive)

Recorded GI50 for `COC(=O)CCCCC/C(=C\C(=O)C(Cl)(Cl)Cl)OC` on SNB-19 was 48.2 µM (inactive)

The value of GI50 recorded for CC(C)(C)OC(=O)N1N=NC2C3OC(CC3=O)C21 (stereo unspecified) when tested on SNB-19 reads > 100 µM (inactive)

Observed GI50 on SNB-19, entry `OCCCNCc1ccccn1` , equals > 100 µM (inactive)

* * *

system: RXF 393; assay: NCI tumour cell line growth inhibition, 48 h
The source made the active and inactive calls. Rule as the data show it: active = GI50 up to about 1.1 µM and inactive = higher.
Consider the following compounds; for each one, report its GI50.

Measured GI50 of CC(=O)Nc1ncc2c(n1)-c1ccccc1OC2c1ccccc1 (stereo unspecified) : 17.1 µM (inactive)

Input `O=C1C=C2SC3C[C@@]24CC1[N+]1=c2c4c(c(O)c4c2=C(C=N4)CC1)N3` . Output GI50: 1.99 µM (inactive)

Form: compound = `Nc1cc(-c2ccccc2)nn1-c1nsc2ccccc12` ; GI50 = 14.4 µM (inactive)

Memo: `COc1cc(/C=C/C(=O)c2cccc3ccccc23)cc(OC)c1OC` , reported GI50: 2.33 µM (inactive)

Entry under test: `CC1(C)OC(=O)C(C#N)=C1C[n+]1ccccc1` . Its GI50 was > 10 µM (inactive)

Record Nc1ncnc2c1ncn2CC(O)C(=O)O (stereo unspecified) , field GI50: > 100 µM (inactive)

* * *

Could you please report measured GI50 for the items listed next?
tested on: BT-549; experiment: NCI tumour cell line growth inhibition, 48 h
Calls of active or inactive are those of the source. Rule as the data show it: active = GI50 up to about 1.1 µM and inactive = higher.

For record `OC[C@]1(n2nc3ccccc3n2)OC[C@@H]1c1ccccc1` the listed GI50 is 28.8 µM (inactive)

Entry under test: CN1C(=O)CC2CCC(=O)N2c2cccnc21 (stereo not given) . Its GI50 was > 100 µM (inactive)

GI50 measured on `[O-][Cl+3]([O-])([O-])[O-].[O-][Cl+3]([O-])([O-])[O-].c1ccn2c(N3CCCC3)[n+]3c4ccccc4n4c(N5CCCC5)[n+]5ccccc5c4c3c2c1` = 30.9 µM (inactive)

Form: compound = `Oc1ccc(-c2nc3ccccc3s2)cc1` ; GI50 = 50.2 µM (inactive)

Reported GI50 ( `N=C(N)SCc1cc(Cl)cc(Cl)c1O` ) = 18.7 µM (inactive)

Record summary for `Cn1c(O)c(C(=O)Nc2ccc([N+](=O)[O-])cc2)c(=O)n(C)c1=S` : reported GI50 = 1.17 µM (inactive)

Entry Nc1ncnc2c1ncn2CC(O)C(=O)O (stereo not given) — recorded GI50 = > 100 µM (inactive)

The value of GI50 measured for the compound `N#CC[N+]1(Cc2ccccn2)CCCC1.O=S(=O)([O-])c1ccccc1` turned out to be > 100 µM (inactive)

Please fill in: GI50 reported for `Cc1[nH]n(-c2ccc(S(=O)(=O)O)cc2)c(=O)c1/N=N/c1ccccc1` = > 100 µM (inactive)

Record summary for O=c1c2ncn(C3CCCCO3)c2n(-c2ccccc2)c(=S)n1-c1ccccc1 (stereo not given) : reported GI50 = 23 µM (inactive)
